target: SKBr3 (Homo sapiens); test: Antiproliferative activity against human SKBr3 cells
recorded-endpoint: IC50 (µM)

In [3]: df
Out[3]:
                           structure_smiles  quantity_unit  value
0  COc1cccc(-c2cc(C(=O)Nc3cc4ccc(OC5CCN(C)CC5)c(C)c4oc3=O)ccc2OC)c1             µM   1.34
1  Cc1ccc(NC(=O)Nc2cc3ccc(OC4CCN(C)CC4)c(C)c3oc2=O)cc1C             µM   0.31
2  COc1cccc(-c2cc(C(=O)Nc3cc4ccc(O[C@@H]5OC(C)(C)[C@H](OC)[C@@H](O)[C@H]5O)c(OC)c4oc3=O)ccc2OC)c1             µM   13.9
3  COc1ccc(C(=O)Nc2cc3ccc(O[C@@H]4OC(C)(C)[C@H](OC)[C@@H](O)[C@H]4O)c(C)c3oc2=O)cc1-c1cccc(O)c1             µM    2.9
